- Tested on: ivyleaf morningglory (Ipomoea hederacea, IPH)
- Experiment Summary: Pre-emerge test, ivyleaf morningglory
- Format: in vivo
- Setup Conditions: 250 g ai/ha, 14 days after application, rating scale 0-100 (0 no damage, 100 complete death)
Measured Pre-emerge Herbicidal Activity IPH (phytotoxicity rating), listed per entry.
Measured Quantity: Pre-emerge Herbicidal Activity IPH (phytotoxicity rating)

CCC1C(=O)Nc2c(-c3nn(C)c(OC(F)F)c3Cl)c(F)cc3c2N1C(=O)CO3 (centres unmarked)
100
O=C1CN2C(=O)COc3cc(F)c(N4C(=O)C5=C(CCCC5)C4=O)c(c32)N1
85
CC(C)C1C(=O)Nc2c(N3C(=O)C4=C(CCCC4)C3=O)c(F)cc3c2N1C(=O)CO3 (centres unmarked)
25
CC1C(=O)Nc2c(-c3nn(C)c(C(F)(F)F)c3Cl)c(F)cc3c2N1C(=O)C(C)(C)O3 (centres unmarked)
75
Cn1nc(-c2c(F)cc3c4c2NC(=O)CN4C(=O)C(C)(C)O3)c(Cl)c1C(F)(F)F
95
Cn1nc(-c2c(F)cc3c4c2NC(=O)CN4C(=O)C(C)(C)O3)c(Cl)c1OC(F)F
85
CCC1C(=O)Nc2c(-c3nn(C)c(OC(F)F)c3Cl)c(F)cc3c2N1C(=O)C(C)(C)O3 (centres unmarked)
98
O=C1Nc2c(-c3ncc(C(F)(F)F)cc3Cl)c(F)cc3c2N(C(=O)CO3)C1c1ccccc1 (centres unmarked)
40
C[C@@H]1Oc2cc(F)c(-c3nn(C)c(C(F)(F)F)c3Cl)c3c2N(CC(=O)N3)C1=O
100
CCC1C(=O)Nc2c3c(cc(F)c2-n2nc(C)n(C(F)F)c2=O)OCC(=O)N31 (centres unmarked)
99
Cn1nc(-c2c(F)cc3c4c2NC(=O)C(c2ccccc2)N4C(=O)CO3)c(Cl)c1C(F)(F)F (centres unmarked)
95
CC1C(=O)Nc2c(-c3nn(C)c(OC(F)F)c3Cl)c(F)cc3c2N1C(=O)CO3 (centres unmarked)
100
CC1C(=O)Nc2c(-c3nn(C)c(OC(F)F)c3Cl)c(F)cc3c2N1C(=O)C(C)(C)O3 (centres unmarked)
100
CC(C)C1C(=O)Nc2c3c(cc(F)c2-n2c(=O)cc(C(F)(F)F)n(C)c2=O)OCC(=O)N31 (centres unmarked)
100
O=C1CN2C(=O)COc3cc(F)c(-c4ncc(C(F)(F)F)cc4Cl)c(c32)N1
100
CC1C(=O)Nc2c3c(cc(F)c2-n2c(=O)cc(C(F)(F)F)n(C)c2=O)OCC(=O)N31 (centres unmarked)
100
Cn1nc(-c2c(F)cc3c4c2NC(=O)CN4C(=O)CO3)c(Cl)c1C(F)(F)F
100
